Target: E. coli topoisomerase I (Escherichia coli (strain K12), UniProt P06612)
Sequence (P06612 whole entry, looked up): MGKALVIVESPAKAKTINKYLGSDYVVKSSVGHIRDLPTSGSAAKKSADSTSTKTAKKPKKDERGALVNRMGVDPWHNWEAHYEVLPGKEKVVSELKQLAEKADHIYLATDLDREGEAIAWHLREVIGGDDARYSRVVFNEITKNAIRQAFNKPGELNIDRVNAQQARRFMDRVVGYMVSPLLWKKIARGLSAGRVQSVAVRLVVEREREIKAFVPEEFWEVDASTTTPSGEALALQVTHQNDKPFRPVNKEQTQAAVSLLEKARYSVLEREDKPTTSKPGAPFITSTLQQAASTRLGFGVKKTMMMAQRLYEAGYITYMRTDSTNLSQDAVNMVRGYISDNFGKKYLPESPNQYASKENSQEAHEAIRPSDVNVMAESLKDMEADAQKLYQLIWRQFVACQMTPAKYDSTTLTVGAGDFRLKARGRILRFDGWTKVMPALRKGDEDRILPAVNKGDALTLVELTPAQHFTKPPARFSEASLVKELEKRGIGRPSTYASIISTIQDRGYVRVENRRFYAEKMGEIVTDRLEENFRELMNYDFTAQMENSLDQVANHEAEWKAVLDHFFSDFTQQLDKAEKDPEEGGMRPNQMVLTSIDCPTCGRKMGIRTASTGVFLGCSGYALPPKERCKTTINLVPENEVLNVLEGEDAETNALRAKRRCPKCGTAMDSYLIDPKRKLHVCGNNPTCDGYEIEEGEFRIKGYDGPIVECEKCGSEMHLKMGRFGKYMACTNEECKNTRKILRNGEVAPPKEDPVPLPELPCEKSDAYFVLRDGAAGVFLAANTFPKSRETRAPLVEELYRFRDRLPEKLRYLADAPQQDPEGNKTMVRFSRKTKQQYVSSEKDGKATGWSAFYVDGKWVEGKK
Assay: biochemical
Type: biochemical
Details: relaxation of supercoiled plasmid DNA; read-out: Topoisomerase inhibitory activity (IC50) E. coli topo I (type IA)
Some compounds, each annotated with its measured pIC50.
When answering, recall that pIC50 equals minus log10 of the concentration in mol/L, and write that number alone.

// worked examples, pIC50 included
Nc1ccc2c(c1)Oc1c(N3CCC(N4CCCCC4)CC3)c(F)cc3c(=O)c(C(=O)O)cn-2c13 [Compound 11g] :: 6.32
N#Cc1ccc2c(c1)Oc1c(F)c(F)cc3c(=O)c(C(=O)O)cn-2c13 :: 4.51

Please examine the following record next.
The compound listed as CC(C)(C)OC(=O)N[C@H]1CCN(c2c(F)cc3c(=O)c(C(=O)O)cn4c3c2Oc2cc(N)ccc2-4)C1 [Compound 15a] has a reported pIC50 of 5.41

---

Target: E. coli DNA gyrase (Escherichia coli (strain K12), UniProt P0AES4+P0AES6)
Assay: DNA gyrase supercoiling inhibition assay
Conditions: supercoiling of relaxed DNA; read-out: Topoisomerase inhibitory activity (IC50) E. coli DNA gyrase (type IIA)
Some compounds, each annotated with its measured pIC50.
When answering, recall that pIC50 equals minus log10 of the concentration in mol/L, and write that number alone.

The compound listed as O=C(O)c1cn2c3c(c(F)c(F)cc3c1=O)Oc1cc([N+](=O)[O-])c(Cl)cc1-2 has a reported pIC50 of 4.20

The compound listed as N[C@H]1CCN(c2c(F)cc3c(=O)c(C(=O)O)cn4c3c2Oc2cc([N+](=O)[O-])ccc2-4)C1 has a reported pIC50 of 5.41

The compound listed as Nc1ccc2c(c1)Oc1c(N3CCC(N4CCCCC4)CC3)c(F)cc3c(=O)c(C(=O)O)cn-2c13 [Compound 11g] has a reported pIC50 of 4.81

The compound listed as Nc1ccc2c(c1)Oc1c(N3CCOCC3)c(F)cc3c(=O)c(C(=O)O)cn-2c13 [Compound 11d] has a reported pIC50 of 5.11

---

Target: E. coli topoisomerase I (Escherichia coli (strain K12), UniProt P06612)
Test: biochemical
Type: biochemical
Details: Topoisomerase inhibitory activity (IC50) E. coli topo I (type IA), relaxation of supercoiled plasmid DNA
pIC50: −log10 of the molar value.
Readout: pIC50

// worked examples, pIC50 included
CC1CCN(c2c(F)cc3c(=O)c(C(=O)O)cn4c3c2Oc2cc(N)ccc2-4)CC1 [Compound 11c] :: 4.81 to 5.41
Nc1ccc2c(c1)Oc1c(N3CCC(N4CCCCC4)CC3)c(F)cc3c(=O)c(C(=O)O)cn-2c13 [Compound 11g] :: 6.01 to 6.62
Nc1ccc2c(c1)Oc1c(NC3CCCC3)c(F)cc3c(=O)c(C(=O)O)cn-2c13 [Compound 11j] :: 4.81 to 5.41
Nc1ccc2c(c1)Oc1c(N3CCNCC3)c(F)cc3c(=O)c(C(=O)O)cn-2c13 [Compound 11b] :: 6.01 to 6.62
Nc1ccc2c(c1)Oc1c(NC3CCCCC3)c(F)cc3c(=O)c(C(=O)O)cn-2c13 [Compound 11i] :: 4.81 to 5.41

The compound listed as CCCCCCNc1c(F)cc2c(=O)c(C(=O)O)cn3c2c1Oc1cc(N)ccc1-3 [Compound 11k] has a reported pIC50 of 4.81 to 5.41

The compound listed as CN1CCN(c2c(F)cc3c(=O)c(C(=O)O)cn4c3c2Oc2cc(N)ccc2-4)CC1 [Compound 11a] has a reported pIC50 of 6.01 to 6.62

The compound listed as N[C@H]1CCN(c2c(F)cc3c(=O)c(C(=O)O)cn4c3c2Oc2cc([N+](=O)[O-])ccc2-4)C1 [Compound 16] has a reported pIC50 of 6.01 to 6.62
